measurement_target: M. tuberculosis RNA polymerase core enzyme + σA (Mycobacterium tuberculosis (strain ATCC 25618 / H37Rv), UniProt P9WGY7+P9WGY9)
method: Fluorescence-detected RNA polymerase assay, M. tuberculosis RNAP
Type: biochemical
Field: class. Source value: IC50. Ranges: lower segment: < 0.6 µM; middle segment: ≥ 0.6 µM and < 2 µM; upper segment: ≥ 2 µM

[[record]]
compound = "CCCCCC1=C(O)C(CCCCC)(CCCCC)C(=O)C(C(=O)CCc2ccccc2)=C1O"
discrete_label = "upper segment"

[[record]]
compound = "CCC1=C(O)C(CC)(CC)C(=O)C(C(=O)CCc2ccccc2)=C1O"
discrete_label = "upper segment"

[[record]]
compound = "CC(C)CCC1=C(O)C(CCC(C)C)(CCC(C)C)C(=O)C(C(=O)CCc2ccc(F)cc2)=C1O"
discrete_label = "middle segment"

[[record]]
compound = "CC(C)CCC1=C(O)C(CCC(C)C)(CCC(C)C)C(=O)C(C(=O)CCc2ccc(C(F)(F)F)cc2)=C1O"
discrete_label = "lower segment"


Query :: Consider `CCCCC1=C(O)C(CCCC)(CCCC)C(=O)C(C(=O)CCc2ccccc2)=C1O` . To which IC50 class does it belong?
Result :: upper segment

Query :: Consider `Cc1ccccc1CCC(=O)C1=C(O)C(CCC(C)C)=C(O)C(CCC(C)C)(CCC(C)C)C1=O` . To which IC50 class does it belong?
Result :: lower segment

Query :: Consider `CC(C)CCC1=C(O)C(CCC(C)C)(CCC(C)C)C(=O)C(C(=O)CCc2ccc(Br)cc2)=C1O` . To which IC50 class does it belong?
Result :: middle segment

Query :: Consider `COc1ccc(CCC(=O)C2=C(O)C(CCC(C)C)=C(O)C(CCC(C)C)(CCC(C)C)C2=O)cc1` . To which IC50 class does it belong?
Result :: middle segment

Query :: Consider CC(C)CCC1=C(O)C(CCC(C)C)(CCC(C)C)C(=O)C(C(=O)C(C)Cc2ccccc2)=C1O (stereo not drawn) . To which IC50 class does it belong?
Result :: upper segment

Query :: Consider `COc1ccccc1CCC(=O)C1=C(O)C(CCC(C)C)=C(O)C(CCC(C)C)(CCC(C)C)C1=O` . To which IC50 class does it belong?
Result :: middle segment

Query :: Consider `CCCCC1=C(O)C(CCCC)(CCCC)C(=O)C(C(=O)CCc2ccc(Cl)cc2)=C1O` . To which IC50 class does it belong?
Result :: middle segment
